- Assay Target: T1, GST-hTEAD1(209-426) (human, UniProt P28347 209-426)
- T1 construct: A 3C protease site stands between tags and protein; also called human TEAD1; source: E. coli BL21 DE3 RIL, purified (His Trap, SEC); not shown: GST, N-terminal, kept
- T1 sequence (P28347 209-426): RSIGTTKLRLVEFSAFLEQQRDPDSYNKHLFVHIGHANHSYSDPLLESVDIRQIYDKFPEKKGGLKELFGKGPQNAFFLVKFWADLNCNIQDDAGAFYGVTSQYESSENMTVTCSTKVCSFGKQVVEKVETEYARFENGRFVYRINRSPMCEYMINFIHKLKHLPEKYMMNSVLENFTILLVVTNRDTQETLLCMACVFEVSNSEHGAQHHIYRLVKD
- Assay Details: SPR; GST-hTEAD1 or mTEAD4 amine-coupled to a CM5 chip (10 mM MES pH 6.4), peptides as analytes; 10 mM HEPES, 150 mM NaCl, 0.05% Tween-20, pH 7.4, 20 °C, 30 µL/min; steady-state fit, 1:1 model
- Experimental Parameters: both partners purified
pKd: −log10 of the molar value. Ends that are not written are not given here.

| Binder | pKd |
| --- | --- |
| VGL4(203-256), acetylated (peptide 1) (numbers count on: mouse VGL4 as in PDB 4LN0; Synthesised on Rink amide resin: C-terminal amide surmised (masses fit); also called hVGL4(203-256); source: synthetic peptide) peptide: Ac-DPVVEEHFRRSLGKNYKEPEPAPNSVSITGSVDDHFAKALGDTWLQIKAAKDSA | 5.37 |

Every entry's value here was drawn from paper PMC7591920.
